Test system: Staphylococcus aureus
Assay summary: In vitro antibacterial activity against methicillin resistant Staphylococcus aureus (MRSA) ATCC 33591
Format: functional
Recorded endpoint: MIC (µg/mL)

[[record]]
compound = "CNC(=O)C[C@@H]1NC(=O)c2csc(n2)-c2ccc(-c3nc(C(=O)NCCOCCO)cs3)nc2-c2csc(n2)-c2csc(n2)C(C(O)c2ccccc2)NC(=O)CNC(=O)c2nc(sc2COC)[C@H](C(C)C)NC(=O)c2nc1sc2C (some centres undefined)"
unit_info = "µg/mL"
inequality_symbol = "="
observed = 0.06

[[record]]
compound = "CNC(=O)C[C@@H]1NC(=O)c2csc(n2)-c2ccc(-c3nc(C(=O)N[C@@H](CO)C(=O)N4CCC[C@H]4C(N)=O)cs3)nc2-c2csc(n2)-c2csc(n2)C(C(O)c2ccccc2)NC(=O)CNC(=O)c2nc(sc2COC)[C@H](C(C)C)NC(=O)c2nc1sc2C (some centres undefined)"
unit_info = "µg/mL"
inequality_symbol = "="
observed = 0.25

[[record]]
compound = "CNC(=O)C[C@@H]1NC(=O)c2csc(n2)-c2ccc(-c3nc(C(=O)N4CC(C(=O)N[C@H](CCC(=O)O)C(=O)O)C4)cs3)nc2-c2csc(n2)-c2csc(n2)C(C(O)c2ccccc2)NC(=O)CNC(=O)c2nc(sc2COC)[C@H](C(C)C)NC(=O)c2nc1sc2C (some centres undefined)"
unit_info = "µg/mL"
inequality_symbol = ">"
observed = 32

[[record]]
compound = "CNC(=O)C[C@@H]1NC(=O)c2csc(n2)-c2ccc(-c3nc(C(=O)NCCN4CCOCC4)cs3)nc2-c2csc(n2)-c2csc(n2)C(C(O)c2ccccc2)NC(=O)CNC(=O)c2nc(sc2COC)[C@H](C(C)C)NC(=O)c2nc1sc2C (some centres undefined)"
unit_info = "µg/mL"
inequality_symbol = "="
observed = 0.25

[[record]]
compound = "CNC(=O)C[C@@H]1NC(=O)c2csc(n2)-c2ccc(-c3nc(C(=O)NCCCN4CCOCC4)cs3)nc2-c2csc(n2)-c2csc(n2)C(C(O)c2ccccc2)NC(=O)CNC(=O)c2nc(sc2COC)[C@H](C(C)C)NC(=O)c2nc1sc2C (some centres undefined)"
unit_info = "µg/mL"
inequality_symbol = "="
observed = 0.06

[[record]]
compound = "CNC(=O)C[C@@H]1NC(=O)c2csc(n2)-c2ccc(-c3nc(C(=O)NCCN=C(N)N)cs3)nc2-c2csc(n2)-c2csc(n2)C(C(O)c2ccccc2)NC(=O)CNC(=O)c2nc(sc2COC)[C@H](C(C)C)NC(=O)c2nc1sc2C (some centres undefined)"
unit_info = "µg/mL"
inequality_symbol = "="
observed = 8

[[record]]
compound = "CNC(=O)C[C@@H]1NC(=O)c2csc(n2)-c2ccc(-c3nc(C(=O)NCCN)cs3)nc2-c2csc(n2)-c2csc(n2)C(C(O)c2ccccc2)NC(=O)CNC(=O)c2nc(sc2COC)[C@H](C(C)C)NC(=O)c2nc1sc2C (some centres undefined)"
unit_info = "µg/mL"
inequality_symbol = "="
observed = 1

[[record]]
compound = "CNC(=O)C[C@@H]1NC(=O)c2csc(n2)-c2ccc(-c3nc(C(=O)N(C)CCCC(=O)O)cs3)nc2-c2csc(n2)-c2csc(n2)C(C(O)c2ccccc2)NC(=O)CNC(=O)c2nc(sc2COC)[C@H](C(C)C)NC(=O)c2nc1sc2C (some centres undefined)"
unit_info = "µg/mL"
inequality_symbol = "="
observed = 0.25

[[record]]
compound = "CNC(=O)C[C@@H]1NC(=O)c2csc(n2)-c2ccc(-c3nc(C(=O)NCC(O)C(=O)O)cs3)nc2-c2csc(n2)-c2csc(n2)C(C(O)c2ccccc2)NC(=O)CNC(=O)c2nc(sc2COC)[C@H](C(C)C)NC(=O)c2nc1sc2C (some centres undefined)"
unit_info = "µg/mL"
inequality_symbol = "="
observed = 4

